Kindly state koff for each of the entries shown.
Tested on: T1, His-tagged PD-L1 ECD protein (ACROBiosystems) (human, UniProt Q9NZQ7 19-238)
T1 construct: Bought protein; also called PD-L1-His; PD-L1/His; not shown: His tag
T1 sequence (Q9NZQ7 19-238): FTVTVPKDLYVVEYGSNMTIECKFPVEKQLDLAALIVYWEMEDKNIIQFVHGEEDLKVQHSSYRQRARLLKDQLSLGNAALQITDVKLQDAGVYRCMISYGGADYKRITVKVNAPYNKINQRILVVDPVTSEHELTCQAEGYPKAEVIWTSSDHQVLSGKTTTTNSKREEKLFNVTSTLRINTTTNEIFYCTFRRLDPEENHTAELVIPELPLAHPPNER
Experiment notes: SPR, IgG captured by anti-human Fc, PD-L1-His analyte
Express the result in s⁻¹ but write the number alone.

koff for 29A8_chimeric (antibody, human IgG1, kappa, N297A, V domains shown, Human IgG1 with effector-less Fc mutations, human kappa; also called chimeric 29A8H8C7) VH: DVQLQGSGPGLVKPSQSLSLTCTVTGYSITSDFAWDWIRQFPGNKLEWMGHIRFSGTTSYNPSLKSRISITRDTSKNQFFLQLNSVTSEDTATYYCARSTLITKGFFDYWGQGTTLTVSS VL: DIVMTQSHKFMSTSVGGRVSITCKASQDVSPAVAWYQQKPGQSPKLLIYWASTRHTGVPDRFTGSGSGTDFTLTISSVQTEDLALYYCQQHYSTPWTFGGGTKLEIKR is 0.00019

koff for 53C1_VH3-VL1.M1 (antibody, human IgG1, kappa, N297A, V domains shown, Humanized, hIgG1 effector-less Fc, kappa; see recheck on K24R in the .M1 light chain) VH: EVQLVQSGAEVKKPGASVKLSCKASGYIFTGYGITWVRQAPGQGLEWIGEIFPRRVNTYYSEKFKGRATLTADTSTSTAYMELRSLRSDDTAVYFCARDYDPYFALDYWGQGTTVTVSS VL: DIQMTQSPSSLSASVGDRVTITCRASQDVSTAVDWYQQKPGKAPKLLIYSASYRYTGVPDRFSGSGSGTDFTFTISSLQPEDIATYYCQQHYSIPFTFGQGTKLEIKR is 0.00016

koff for 29A8_VH5-VL1.M1 (antibody, human IgG1, kappa, N297A, V domains shown, Humanized, hIgG1 effector-less Fc, kappa; see recheck on K24R in the .M1 light chain) VH: EVQLQESGPGLVKPSETLSLTCTVSGYSITSDFAWDWIRQPPGKGLEWIGHIRFSGTTSYNPSLKSRVTISRDTSKNQFSLKLSSVTAADTAVYYCARSTLITKGFFDYWGQGTLVTVSS VL: DIQMTQSPSSLSASVGDRVTITCRASQDVSPAVAWYQQKPGKAPKLLIYWASTRHTGVPSRFSGSGSGTDFTLTISSLQPEDFATYYCQQHYSTPWTFGQGTKVEIKR is 0.00046

koff for 53C1_chimeric (antibody, human IgG1, kappa, N297A, V domains shown, Human IgG1 with effector-less Fc mutations, human kappa; also called chimeric 53C1F3D4) VH: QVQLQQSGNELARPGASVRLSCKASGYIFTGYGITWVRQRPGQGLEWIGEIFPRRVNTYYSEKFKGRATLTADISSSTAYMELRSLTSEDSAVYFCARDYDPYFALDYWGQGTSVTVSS VL: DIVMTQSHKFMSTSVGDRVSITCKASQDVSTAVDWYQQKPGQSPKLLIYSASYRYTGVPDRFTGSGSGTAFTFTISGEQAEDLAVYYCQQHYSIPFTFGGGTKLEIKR is 0.00019
